Data credit: ChEMBL document CHEMBL1124865

tested on: Enterobacter cloacae; assay: Antibacterial activity against Enterobacter cloacae EB5; format: functional; conditions: Enterobacter cloacae; read-out: MIC
Experimental Readout: MIC

CO/N=C(\C(=O)N[C@@H]1C(=O)N2C(C(=O)[O-])=C(C[n+]3cccc4c3CCC4)CS[C@H]12)c1csc(N)n1 | 0.06 µg/mL
CO/N=C(\C(=O)N[C@@H]1C(=O)N2C(C(=O)[O-])=C(C[n+]3ccsc3)CS[C@H]12)c1csc(N)n1 | 0.5 µg/mL
CO/N=C(\C(=O)N[C@@H]1C(=O)N2C(C(=O)[O-])=C(C[n+]3ccc4ccoc4c3)CS[C@H]12)c1csc(N)n1 | 0.06 µg/mL
CO/N=C(\C(=O)N[C@@H]1C(=O)N2C(C(=O)[O-])=C(C[n+]3cccc4c3CCCC4)CS[C@H]12)c1csc(N)n1 | 0.125 µg/mL
CO/N=C(\C(=O)N[C@@H]1C(=O)N2C(C(=O)[O-])=C(C[n+]3ccc4nc(C(C)(C)C)sc4c3)CS[C@H]12)c1csc(N)n1 | 1 µg/mL
CO/N=C(\C(=O)N[C@@H]1C(=O)N2C(C(=O)[O-])=C(C[n+]3cc(C)c4ccccc4c3)CS[C@H]12)c1csc(N)n1 | 0.25 µg/mL
CO/N=C(\C(=O)N[C@@H]1C(=O)N2C(C(=O)[O-])=C(C[n+]3cccc4ccoc43)CS[C@H]12)c1csc(N)n1 | 0.125 µg/mL
CO/N=C(\C(=O)N[C@@H]1C(=O)N2C(C(=O)[O-])=C(C[n+]3cccc4cc(O)ccc43)CS[C@H]12)c1csc(N)n1 | 0.5 µg/mL
CO/N=C(\C(=O)N[C@@H]1C(=O)N2C(C(=O)[O-])=C(C[n+]3ccc4cnccc4c3)CS[C@H]12)c1csc(N)n1 | 0.03 µg/mL
CO/N=C(\C(=O)N[C@@H]1C(=O)N2C(C(=O)[O-])=C(C[n+]3ccc(Cl)cc3)CS[C@H]12)c1csc(N)n1 | 0.25 µg/mL
CO/N=C(\C(=O)N[C@@H]1C(=O)N2C(C(=O)[O-])=C(C[n+]3csc(CCO)c3C)CS[C@H]12)c1csc(N)n1 | 0.125 µg/mL

---

The reader will find reported MIC values listed item by item below.
tested on: Staphylococcus aureus; assay: Antibacterial activity against penicillin G resistance Staphylococcus aureus; format: functional; conditions: Staphylococcus aureus; read-out: MIC
Experimental Readout: MIC

CO/N=C(\C(=O)N[C@@H]1C(=O)N2C(C(=O)[O-])=C(C[n+]3ccc4[nH]cnc4c3)CS[C@H]12)c1csc(N)n1 | 2 µg/mL
CO/N=C(\C(=O)N[C@@H]1C(=O)N2C(C(=O)[O-])=C(C[n+]3ccc4occc4c3)CS[C@H]12)c1csc(N)n1 | 4 µg/mL
CO/N=C(\C(=O)N[C@@H]1C(=O)N2C(C(=O)[O-])=C(C[n+]3cccc4c(O)cccc43)CS[C@H]12)c1csc(N)n1 | 2 µg/mL
CO/N=C(\C(=O)N[C@@H]1C(=O)N2C(C(=O)[O-])=C(C[n+]3cccc4ccsc43)CS[C@H]12)c1csc(N)n1 | 2 µg/mL
CO/N=C(\C(=O)N[C@@H]1C(=O)N2C(C(=O)[O-])=C(C[n+]3csc4c3CCC4)CS[C@H]12)c1csc(N)n1 | 4 µg/mL
CO/N=C(\C(=O)N[C@@H]1C(=O)N2C(C(=O)[O-])=C(C[n+]3ccc4sc(C)cc4c3)CS[C@H]12)c1csc(N)n1 | 4 µg/mL
CO/N=C(\C(=O)N[C@@H]1C(=O)N2C(C(=O)[O-])=C(C[n+]3cccc4c(N)cccc43)CS[C@H]12)c1csc(N)n1 | 2 µg/mL
CO/N=C(\C(=O)N[C@@H]1C(=O)N2C(C(=O)[O-])=C(C[n+]3cccc4ncccc43)CS[C@H]12)c1csc(N)n1 | 4 µg/mL
CO/N=C(\C(=O)N[C@@H]1C(=O)N2C(C(=O)[O-])=C(C[n+]3csc4c3CCCC4)CS[C@H]12)c1csc(N)n1 | 2 µg/mL
CO/N=C(\C(=O)N[C@@H]1C(=O)N2C(C(=O)[O-])=C(C[n+]3cccc4cc[nH]c43)CS[C@H]12)c1csc(N)n1 | 8 µg/mL
CO/N=C(\C(=O)N[C@@H]1C(=O)N2C(C(=O)[O-])=C(C[n+]3ccc4scnc4c3)CS[C@H]12)c1csc(N)n1 | 8 µg/mL
CO/N=C(\C(=O)N[C@@H]1C(=O)N2C(C(=O)[O-])=C(C[n+]3ccc(Cl)cc3)CS[C@H]12)c1csc(N)n1 | 4 µg/mL
CO/N=C(\C(=O)N[C@@H]1C(=O)N2C(C(=O)[O-])=C(C[n+]3ccc4sccc4c3)CS[C@H]12)c1csc(N)n1 | 2 µg/mL
CO/N=C(\C(=O)N[C@@H]1C(=O)N2C(C(=O)[O-])=C(C[n+]3csc(CCO)c3C)CS[C@H]12)c1csc(N)n1 | 4 µg/mL
CO/N=C(\C(=O)N[C@@H]1C(=O)N2C(C(=O)[O-])=C(C[n+]3ccc4oc(C)nc4c3)CS[C@H]12)c1csc(N)n1 | 8 µg/mL
CO/N=C(\C(=O)N[C@@H]1C(=O)N2C(C(=O)[O-])=C(C[n+]3cccc(S(=O)(=O)O)c3)CS[C@H]12)c1csc(N)n1 | 8 µg/mL
CO/N=C(\C(=O)N[C@@H]1C(=O)N2C(C(=O)[O-])=C(C[n+]3ccc4[nH]c(-c5ccccc5)nc4c3)CS[C@H]12)c1csc(N)n1 | 8 µg/mL
CO/N=C(\C(=O)N[C@@H]1C(=O)N2C(C(=O)[O-])=C(C[n+]3cccc4ccoc43)CS[C@H]12)c1csc(N)n1 | 16 µg/mL
CO/N=C(\C(=O)N[C@@H]1C(=O)N2C(C(=O)[O-])=C(C[n+]3cc(C)c4ccccc4c3)CS[C@H]12)c1csc(N)n1 | 2 µg/mL
CO/N=C(\C(=O)N[C@@H]1C(=O)N2C(C(=O)[O-])=C(C[n+]3ccc4c(S(=O)(=O)O)cccc4c3)CS[C@H]12)c1csc(N)n1 | 8 µg/mL
CO/N=C(\C(=O)N[C@@H]1C(=O)N2C(C(=O)[O-])=C(C[n+]3ccc4ncn(C)c4c3)CS[C@H]12)c1csc(N)n1 | 2 µg/mL
CO/N=C(\C(=O)N[C@@H]1C(=O)N2C(C(=O)[O-])=C(C[n+]3csc(CCOC(C)=O)c3C)CS[C@H]12)c1csc(N)n1 | 4 µg/mL

---

test: In vitro dose required for anticholinergic activity in isolated guinea pig trachea; assay type: functional
Respond with TRUE for Dose ratio values of 2 and above, FALSE for values below.

CO/N=C(\C(=O)N[C@@H]1C(=O)N2C(C(=O)[O-])=C(C[n+]3cccc4c3CCC4)CS[C@H]12)c1csc(N)n1 [CEFPIROME] | FALSE
CO/N=C(\C(=O)N[C@@H]1C(=O)N2C(C(=O)[O-])=C(C[n+]3ccc4sc(C(=O)O)cc4c3)CS[C@H]12)c1csc(N)n1 | FALSE
CO/N=C(\C(=O)N[C@@H]1C(=O)N2C(C(=O)[O-])=C(C[n+]3ccc4sccc4c3)CS[C@H]12)c1csc(N)n1 | TRUE
CO/N=C(\C(=O)N[C@@H]1C(=O)N2C(C(=O)[O-])=C(C[n+]3ccccc3)CS[C@H]12)c1csc(N)n1 | TRUE
CO/N=C(\C(=O)N[C@@H]1C(=O)N2C(C(=O)[O-])=C(C[n+]3csc(CCO)c3C)CS[C@H]12)c1csc(N)n1 | FALSE

---

system: Enterobacter cloacae; assay: Antibacterial activity against Enterobacter cloacae EB5; format: functional; conditions: Enterobacter cloacae; read-out: MIC
Mark true (1) only for MIC values smaller than 0.1 µg/mL; exact matches and larger values are false (0).

CO/N=C(\C(=O)N[C@@H]1C(=O)N2C(C(=O)[O-])=C(C[n+]3cccc(S(=O)(=O)O)c3)CS[C@H]12)c1csc(N)n1 | false (0)
CO/N=C(\C(=O)N[C@@H]1C(=O)N2C(C(=O)[O-])=C(C[n+]3ccc4sc(C)cc4c3)CS[C@H]12)c1csc(N)n1 | true (1)
CO/N=C(\C(=O)N[C@@H]1C(=O)N2C(C(=O)[O-])=C(C[n+]3ccc4sc(N)cc4c3)CS[C@H]12)c1csc(N)n1 | true (1)
CO/N=C(\C(=O)N[C@@H]1C(=O)N2C(C(=O)[O-])=C(C[n+]3csc4c3CCC4)CS[C@H]12)c1csc(N)n1 | false (0)
CO/N=C(\C(=O)N[C@@H]1C(=O)N2C(C(=O)[O-])=C(C[n+]3ccc(C(N)=S)cc3)CS[C@H]12)c1csc(N)n1 | false (0)
CO/N=C(\C(=O)N[C@@H]1C(=O)N2C(C(=O)[O-])=C(C[n+]3csc(CCOC=O)c3C)CS[C@H]12)c1csc(N)n1 | true (1)
CO/N=C(\C(=O)N[C@@H]1C(=O)N2C(C(=O)[O-])=C(C[n+]3ccc4cncnc4c3)CS[C@H]12)c1csc(N)n1 | false (0)
CO/N=C(\C(=O)N[C@@H]1C(=O)N2C(C(=O)[O-])=C(C[n+]3ccc4ccsc4c3)CS[C@H]12)c1csc(N)n1 | true (1)
CO/N=C(\C(=O)N[C@@H]1C(=O)N2C(C(=O)[O-])=C(C[n+]3ccc4scc(C(=O)O)c4c3)CS[C@H]12)c1csc(N)n1 | false (0)
CO/N=C(\C(=O)N[C@@H]1C(=O)N2C(C(=O)[O-])=C(C[n+]3ccc4ncn(C)c4c3)CS[C@H]12)c1csc(N)n1 | false (0)
CO/N=C(\C(=O)N[C@@H]1C(=O)N2C(C(=O)[O-])=C(C[n+]3ccc4sccc4c3)CS[C@H]12)c1csc(N)n1 | true (1)
CO/N=C(\C(=O)N[C@@H]1C(=O)N2C(C(=O)[O-])=C(C[n+]3cccc4c(O)cccc43)CS[C@H]12)c1csc(N)n1 | false (0)
CO/N=C(\C(=O)N[C@@H]1C(=O)N2C(C(=O)[O-])=C(C[n+]3ccc4c(S(=O)(=O)O)cccc4c3)CS[C@H]12)c1csc(N)n1 | false (0)
CO/N=C(\C(=O)N[C@@H]1C(=O)N2C(C(=O)[O-])=C(C[n+]3cccc4ccccc43)CS[C@H]12)c1csc(N)n1 | false (0)
